The reported measurements were obtained from patent US10407437B2.

test system: SW620 cells; assay: Anti-proliferative activity, AlamarBlue assay, SW620 cells; assay type: cell-based, human; settings: SW-620; SW620 human colorectal adenocarcinoma cells; 48-72 hours with compound; AlamarBlue; sigmoidal regression curve; read-out: IC50 of anti-proliferative drugs in SW620 cells
pIC50: −log10 of the molar value.
Measured Quantity: pIC50

* CCCCCCCCCCCCCC(=O)O[C@]1(CC)C(=O)OCc2c1cc1n(c2=O)Cc2c-1nc1ccc(O)cc1c2CC | 4.99
* CCCCC(=O)O[C@]1(CC)C(=O)OCc2c1cc1n(c2=O)Cc2c-1nc1ccc(O)cc1c2CC | 5.72
